Target: phosphorylated MEK1 (Homo sapiens, UniProt Q02750)
Sequence (Q02750 whole entry): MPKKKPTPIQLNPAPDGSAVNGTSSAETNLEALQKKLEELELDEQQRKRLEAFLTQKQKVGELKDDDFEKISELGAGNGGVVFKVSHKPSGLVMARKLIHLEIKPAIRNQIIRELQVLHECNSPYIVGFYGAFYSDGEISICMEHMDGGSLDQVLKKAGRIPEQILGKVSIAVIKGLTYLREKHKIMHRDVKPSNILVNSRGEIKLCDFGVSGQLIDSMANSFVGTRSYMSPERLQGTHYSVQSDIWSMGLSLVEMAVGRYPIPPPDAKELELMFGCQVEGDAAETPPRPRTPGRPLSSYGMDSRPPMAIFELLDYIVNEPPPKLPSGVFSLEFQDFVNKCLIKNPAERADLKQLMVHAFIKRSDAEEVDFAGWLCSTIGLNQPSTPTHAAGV
Experiment: MEK1 binding assay (HTRF, tracer displacement)
Details: read-out: % binding (20 µM)
Procedure: The homogeneous time resolved fluorescence (HTRF) assay was performed on a Proxiplate-384 F plus solid back plate (Perkin Elmer, Waltham, MA. USA) with 5 nM GST tagged phosphorylated MEK1 (GST-MEK1), 2 nM europium-labeled anti-GST antibody (Eu-anti-GST), 20 nM kinase tracer 236 and test compound at a variety of concentrations. […] This energy transfer is detected by an increase in the fluorescence emission of the tracer at 665 nm and a decrease in the fluorescence emission of europium at 615 nm. […]
readout_type: inhibition at 20 µM (%)
Kindly answer with a numeric value in %, unit omitted.

CCCc1c(Cc2ccccc2)c(=O)oc2cc(OC(=O)N(C)C)ccc12 | 95.4
CC(=O)Oc1cc2oc(=O)c(Cc3ccccc3)c(C)c2cc1Cl | 30.8
Cc1ccc(S(=O)(=O)Oc2ccc3c(C)c(Cc4ccccc4)c(=O)oc3c2)cc1 | -2.36
CCCc1c(Cc2ccc(F)cc2)c(=O)oc2cc(OC(=O)N(C)C)ccc12 | 87.6
CCCc1c(Cc2ccc(F)cc2)c(=O)oc2cc(OC(=O)N(CC)CC)ccc12 | 37.5

### Prompt Recall the recorded inhibition at 20 µM for `CCc1c(Cc2ccccc2)c(=O)oc2cc(OS(=O)(=O)c3ccc(C)cc3)ccc12` with phosphorylated MEK1 (Homo sapiens, UniProt Q02750) and state it.
### Response 4.76

### Prompt Notebook: pull reported inhibition at 20 µM for phosphorylated MEK1 (Homo sapiens, UniProt Q02750), entry `CCCc1c(Cc2ccccc2)c(=O)oc2cc(OC(=O)C(C)(C)C)ccc12`
### Response 19.1

### Prompt Give phosphorylated MEK1 (Homo sapiens, UniProt Q02750) inhibition at 20 µM for `Cc1c(Cc2ccccc2)c(=O)oc2cc(OC(=O)N(C)C)c(Cl)cc12`
### Response 80.8

### Prompt // map `CCC(=O)Oc1ccc2c(C)c(Cc3ccccc3)c(=O)oc2c1` to recorded inhibition at 20 µM (system: phosphorylated MEK1 (Homo sapiens, UniProt Q02750))
### Response 85

### Prompt Param readout = inhibition at 20 µM; param system = phosphorylated MEK1 (Homo sapiens, UniProt Q02750); param query = `CCCCC(=O)Oc1cc2oc(=O)c(Cc3ccccc3)c(C)c2cc1Cl` ; response: value
### Response 20.3

* * *

We begin with a simple list: items and their reported melting point.

Example cases with answers are listed next.
Cc1c(Cc2ccccc2)c(=O)oc2cc(OC(=O)c3ccccc3)c(Cl)cc12 | 133 to 135 °C
CCC(=O)Oc1ccc2c(C)c(Cc3ccc(F)cc3)c(=O)oc2c1 | 115 to 116 °C
CCCc1c(Cc2ccccc2)c(=O)oc2cc(OC(=O)N(C)C)ccc12 | 117 to 118 °C
CCCC(=O)Oc1ccc2c(CCC)c(Cc3ccc(F)cc3)c(=O)oc2c1 | 88 to 90 °C
CC(=O)Oc1cc2oc(=O)c(Cc3ccccc3)c(C)c2cc1Cl | 190 °C

### Prompt Field request: melting point | item: `Cc1c(Cc2ccccc2)c(=O)oc2cc(OC(=O)c3ccccc3)ccc12`
### Response 149 to 150 °C

### Prompt Give the measured melting point of `CCCc1c(Cc2ccccc2)c(=O)oc2cc(OC(=O)C(C)(C)C)ccc12` .
### Response 138 to 139 °C

### Prompt What value of melting point has been reported for the following compound? `CCCc1c(Cc2ccccc2)c(=O)oc2cc(OC(=O)N(CC)CC)ccc12`
### Response 112 to 113 °C

### Prompt Looking for the measured melting point of `CCc1c(Cc2ccccc2)c(=O)oc2cc(OC(=O)N(CC)CC)ccc12` , can you help?
### Response 64 to 65 °C

### Prompt Entry `CCCC(=O)Oc1ccc2c(CC)c(Cc3ccccc3)c(=O)oc2c1` has what melting point?
### Response 102 °C

### Prompt # melting point lookup, item `CCN(CC)C(=O)Oc1ccc2c(C)c(Cc3ccccc3)c(=O)oc2c1`
### Response 109 °C

### Prompt Could you share which melting point value was measured for `Cc1ccc(S(=O)(=O)Oc2ccc3c(C)c(Cc4ccccc4)c(=O)oc3c2)cc1` ?
### Response 138 to 139 °C

### Prompt Which melting point is listed for `Cc1c(Cc2ccccc2)c(=O)oc2cc(OC(=O)C(C)(C)C)c(Cl)cc12` ?
### Response 113 °C

### Prompt // melting point lookup, key: `Cc1ccc(S(=O)(=O)Oc2cc3oc(=O)c(Cc4ccccc4)c(C)c3cc2Cl)cc1`
### Response 173 to 174 °C

### Prompt Fill in the blank: the reported melting point of `COc1ccc2cc(Cc3ccc(F)cc3)c(=O)oc2c1` is ____.
### Response 94 to 95 °C

### Prompt Query (compound): `Cc1c(Cc2ccccc2)c(=O)oc2cc(OC(=O)N(C)C)c(Cl)cc12` ; field requested: melting point
### Response 156 to 157 °C

### Prompt Need melting point of `CCCc1c(Cc2ccc(F)cc2)c(=O)oc2cc(OC(=O)N(CC)CC)ccc12` , thanks.
### Response 51 to 52 °C

### Prompt GET /values?readout=melting point&item= `Cc1c(Cc2ccccc2)c(=O)oc2cc(OC(=O)N(C)C)ccc12`
### Response 130 to 133 °C

* * *

Consider the following compounds and their measured inhibition at 20 µM readings.
Molecular target: phosphorylated MEK1 (Homo sapiens)
Assay: MEK1 binding assay (HTRF, tracer displacement)
Conditions: read-out: % binding (20 µM)
Express the result in % but write the number alone.

Examples with answers:
CCCc1c(Cc2ccccc2)c(=O)oc2cc(OC(=O)CC)ccc12 | 38.8
CCc1c(Cc2ccccc2)c(=O)oc2cc(OC(=O)C(C)(C)C)ccc12 | 21
CCCC(=O)Oc1ccc2c(CCC)c(Cc3ccccc3)c(=O)oc2c1 | 38.9

### Prompt API: value(readout= inhibition at 20 µM, system= phosphorylated MEK1 (Homo sapiens), query= `Cc1c(Cc2ccccc2)c(=O)oc2cc(OC(=O)C(C)(C)C)ccc12` )
### Response 14.8

### Prompt Under phosphorylated MEK1 (Homo sapiens): inhibition at 20 µM value of `CCCc1c(Cc2ccccc2)c(=O)oc2cc(OS(=O)(=O)c3ccccc3)ccc12` ?
### Response 14

### Prompt Recall the recorded inhibition at 20 µM for `CCN(CC)C(=O)Oc1ccc2c(C)c(Cc3ccccc3)c(=O)oc2c1` with phosphorylated MEK1 (Homo sapiens) and state it.
### Response 20

* * *

Entries and their melting point

CCCC(=O)Oc1ccc2c(C)c(Cc3ccccc3)c(=O)oc2c1 | 139 to 140 °C

### Prompt I'd like to know its melting point. The compound in question is `O=c1cc(CCl)c2ccc(O)cc2o1`
### Response 166 to 167 °C

### Prompt Fill in the blank: the reported melting point of `CCCC(=O)Oc1ccc2c(CC)c(Cc3ccc(F)cc3)c(=O)oc2c1` is ____.
### Response 79 °C

### Prompt Look up melting point: `Cc1ccc(S(=O)(=O)Oc2ccc3c(C)c(Cc4ccc(F)cc4)c(=O)oc3c2)cc1`
### Response 95 to 96 °C

### Prompt # melting point lookup, item `CCCc1c(Cc2ccccc2)c(=O)oc2cc(O)ccc12`
### Response 139 to 140 °C

### Prompt Which melting point value is on record for `CCCCC(=O)Oc1ccc2c(C)c(Cc3ccccc3)c(=O)oc2c1` ?
### Response 110 to 111 °C

### Prompt # get_value(readout='melting point', item= `CCCCC(=O)Oc1cc2oc(=O)c(Cc3ccccc3)c(C)c2cc1Cl` )
### Response 108 to 109 °C

### Prompt I am curious: what melting point value has been reported for `Cc1c(Cc2ccc(F)cc2)c(=O)oc2cc(OC(=O)N(C)C)ccc12` ?
### Response 149 to 150 °C

### Prompt I am curious: what melting point value has been reported for `CCCc1c(Cc2ccccc2)c(=O)oc2cc(OC(=O)CC)ccc12` ?
### Response 120 to 121 °C

### Prompt Requested field: melting point. Item: `CCc1c(Cc2ccccc2)c(=O)oc2cc(OC(=O)N(C)C)ccc12`
### Response 85 to 86 °C

### Prompt Can you look up the measured melting point of `COc1ccc2cc(Cc3ccccc3)c(=O)oc2c1` for me?
### Response 102 to 103 °C

### Prompt Returns the measured melting point for the input compound. Input: `Cc1c(Cc2ccc(F)cc2)c(=O)oc2cc(OC(=O)C(C)(C)C)ccc12`
### Response 136 to 138 °C

* * *

readout_type: melting point

Previously resolved entries follow.
CCc1c(Cc2ccccc2)c(=O)oc2cc(O)ccc12 [Compound 4d] | 140 to 141 °C
CCN(CC)C(=O)Oc1cc2oc(=O)c(Cc3ccccc3)c(C)c2cc1Cl [Compound 21] | 83 to 84 °C

Turning now to a further record.
### Prompt Look up melting point for this compound: CCc1c(Cc2ccc(F)cc2)c(=O)oc2cc(OC(=O)C(C)(C)C)ccc12 [Compound 59]
### Response 103 to 104 °C
